Please respond with reported MST for every item in the list.
tested on: leukemia L1210; test: Leukemia L1210 in vivo, measurement of survival time (Table XII); parameters: species or system B6 D2 Fl (C 57 Bl/6×DBA/2) Fl mice; unit not given here; conditions: 10^5 cells; i.p.; 20 mg/kg; day +4

[
  {
    "molecule": "COc1ccc2[nH]c3c(C)c4ccnc(NCCCN(C)C)c4c(C)c3c2c1 [Compound 26]",
    "readoutName": "MST",
    "result": 17.4
  },
  {
    "molecule": "CCN(CC)CCCNc1nccc2c(C)c3[nH]c4ccc(OC)cc4c3c(C)c12 [Compound 27]",
    "readoutName": "MST",
    "result": 20.2
  },
  {
    "molecule": "COc1ccc2[nH]c3c(C)c4ccnc(NCCCN)c4c(C)c3c2c1 [Compound 25]",
    "readoutName": "MST",
    "result": 9.6
  },
  {
    "molecule": "CCN(CC)CCCNc1nccc2c(C)c3[nH]c4ccc(O)cc4c3cc12 [Compound 29]",
    "readoutName": "MST",
    "result": 12.4
  }
]

Read the next record carefully.
Given item CCN(CC)CCCC(C)Nc1nccc2c(C)c3[nH]c4ccc(OC)cc4c3cc12 (centres unmarked) [Compound 19] , the value recorded as its MST is 12.4
